As shown below, each of these binders has a reported pKd value.
Molecular target: T1, human BCMA on cells (human, UniProt Q02223 1-184)
T1 construct: also called hBCMA; BCMA on NCI-H929, ARP-1, OPM-2, U266B1, MM.1S, RPMI-8226 cells
T1 sequence: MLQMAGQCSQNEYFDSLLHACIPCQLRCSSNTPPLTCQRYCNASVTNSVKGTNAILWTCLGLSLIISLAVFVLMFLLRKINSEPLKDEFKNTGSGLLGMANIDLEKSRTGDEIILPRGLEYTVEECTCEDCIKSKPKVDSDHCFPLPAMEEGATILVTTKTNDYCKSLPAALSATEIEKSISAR
Assay: FACS, NCI-H929 cells
pKd: −log10 of the molar value.
MEASURED_ATTRIBUTE: pKd

10G5 (antibody, V domains shown, Chicken HybriFree-derived antibody; also called Antibody 31) VH: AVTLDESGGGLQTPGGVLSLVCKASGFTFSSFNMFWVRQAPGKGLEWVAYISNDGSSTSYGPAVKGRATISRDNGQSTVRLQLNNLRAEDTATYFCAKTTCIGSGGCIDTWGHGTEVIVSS VL: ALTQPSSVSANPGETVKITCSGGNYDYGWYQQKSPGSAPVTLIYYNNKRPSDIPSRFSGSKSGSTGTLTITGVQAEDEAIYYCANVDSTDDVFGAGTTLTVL ... 7.18
9E12 (antibody, V domains shown, Chicken HybriFree-derived antibody; also called Antibody 43) VH: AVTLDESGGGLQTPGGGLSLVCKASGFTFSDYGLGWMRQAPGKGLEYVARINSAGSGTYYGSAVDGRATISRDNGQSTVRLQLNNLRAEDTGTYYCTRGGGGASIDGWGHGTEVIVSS VL: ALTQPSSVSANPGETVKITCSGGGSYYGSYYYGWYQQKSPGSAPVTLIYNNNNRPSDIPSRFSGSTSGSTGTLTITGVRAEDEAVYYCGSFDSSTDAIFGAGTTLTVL ... 9.28
10F4 (antibody, V domains shown, Chicken HybriFree-derived antibody; also called Antibody 37) VH: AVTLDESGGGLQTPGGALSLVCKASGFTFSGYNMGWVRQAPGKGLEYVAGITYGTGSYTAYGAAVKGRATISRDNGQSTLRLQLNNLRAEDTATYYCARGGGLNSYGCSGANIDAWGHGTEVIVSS VL: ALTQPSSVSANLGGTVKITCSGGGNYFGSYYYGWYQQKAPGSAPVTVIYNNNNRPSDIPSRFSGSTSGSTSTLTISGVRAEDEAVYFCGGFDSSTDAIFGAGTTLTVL ... 7.98
